# SUBJECT_OF_TEST: human IL-1beta (human, UniProt P01584 117-269)
# TEST_METHOD_NOTES: SPR (BIAcore); antibody captured by anti-Fc, IL-1beta injected
MEASURE: pKd
Give bare numbers, as −log10 of the molar value.

Input: # pKd lookup, item huH34-2 (antibody, V domains shown, Humanized antibody expressed in HEK cells; also called huH34-2 bivalent; humanized version of H34) VH: QVQLVQSGAEVKKPGASVKVSCKASGYTFTGYYMHWVRQAPGQGLEWIGYISSYNAFTTYNQKFRGRATFTVDTSISTAYMELSRLRSDDTAVYYCVRSDYYGTSLYWGQGTLVTVSS VL: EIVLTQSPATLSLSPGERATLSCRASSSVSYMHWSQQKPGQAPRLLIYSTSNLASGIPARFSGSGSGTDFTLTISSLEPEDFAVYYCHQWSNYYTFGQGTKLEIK
Output: 10.22
